# ASSAY_INFO: Inhibition of Plasmodium falciparum falcipain-2 after 12 hrs by fluorescence spectroscopy-based on-bead assay
# Parameters: concentration or dose not given beside the values
# MEASUREMENT_CONDITIONS: concentration not given here
Peptide text beside a SMILES is read from it.

MOLECULE: CC(C)[C@H](NC(=O)[C@H](C)NC(=O)[C@@H](NC(=O)[C@H](Cc1ccccc1)NC(=O)/C=C/C(=O)NCC(=O)NCC(=O)N[C@@H](Cc1ccccc1)C(=O)O)C1CCCCC1)C(N)=O (HELM PEPTIDE1{[O=C(/C=C/C(=O)[*:2])NCC(=O)NCC(=O)N[C@@H](Cc1ccccc1)C(=O)O].F.[O=C([C@@H](N[*:1])C1CCCCC1)[*:2]].A.V.[am]}$$$$V2.0)
inhibition: 65%
//
MOLECULE: CC(C)[C@H](NC(=O)[C@H](C)NC(=O)[C@@H](NC(=O)[C@H](CC(N)=O)NC(=O)/C=C/C(=O)N[C@@H](C)C(=O)NCC(=O)N[C@@H](Cc1ccccc1)C(=O)O)c1ccccc1)C(N)=O (HELM PEPTIDE1{[C[C@H](NC(=O)/C=C/C(=O)[*:2])C(=O)NCC(=O)N[C@@H](Cc1ccccc1)C(=O)O].N.[Phg].A.V.[am]}$$$$V2.0)
inhibition: 35%
//
MOLECULE: CC(=O)NC[C@H](NC(=O)/C=C/C(=O)NCC(=O)NCC(=O)N[C@@H](Cc1ccccc1)C(=O)O)C(=O)N[C@H](C(=O)N[C@H](C(=O)N[C@H](C(N)=O)C(C)C)C(C)C)c1ccccc1 (HELM PEPTIDE1{[O=C(/C=C/C(=O)[*:2])NCC(=O)NCC(=O)N[C@@H](Cc1ccccc1)C(=O)O].[O=C([C@H](CN[*:3])N[*:1])[*:2]].[Phg].V.V.[am]}|PEPTIDE2{[ac]}$PEPTIDE1,PEPTIDE2,2:R3-1:R2$$$V2.0)
inhibition: 25%
